molecular target: Sodium-dependent serotonin transporter (Rattus norvegicus); experiment: Binding affinity at serotonin transporter from rat cerebral cortex by [3H]-paroxetine displacement.; assay type: tissue-based
# IC50 values compiled below
VALUE_KIND: IC50 (nM)

> print(dat)
                              line.notation  observed
1  O=C(COc1cc(C(F)(F)F)cc(C(F)(F)F)c1)N(Cc1cccc(Cl)c1)C1CCNCC1       158
2  Cc1cccc(CN(C(=O)COc2cc(C(F)(F)F)cc(C(F)(F)F)c2)C2CCNCC2)c1       251
3  O=C(CCc1cc(C(F)(F)F)cc(C(F)(F)F)c1)N(Cc1ccc(F)cc1)C1CCNCC1       316
4  O=C(COc1cc(C(F)(F)F)cc(C(F)(F)F)c1)N(c1ccc(Cl)c(Cl)c1)C1CCNCC1       158
5  Fc1ccc(CN(CCCc2cc(C(F)(F)F)cc(C(F)(F)F)c2)C2CCNCC2)cc1      25.1
6  O=C(COc1cc(F)cc(C(F)(F)F)c1)N(c1ccc(Cl)c(Cl)c1)C1CCNCC1      39.8
7  O=C(COc1cc(Cl)cc(Cl)c1)N(Cc1cccc(Cl)c1)C1CCNCC1      50.1
8  O=C(CCc1cc(C(F)(F)F)cc(C(F)(F)F)c1)N(Cc1ccccc1Cl)C1CCNCC1       200
9  O=C(COc1cc(C(F)(F)F)cc(C(F)(F)F)c1)N(c1cc(Cl)cc(Cl)c1)C1CCNCC1       158

----------
molecular target: UniProt:P25103; experiment: Binding affinity at human Tachykinin receptor 1 expressed in CHO cells by [3H]-substance P displacement.
Sequence (P25103 whole entry): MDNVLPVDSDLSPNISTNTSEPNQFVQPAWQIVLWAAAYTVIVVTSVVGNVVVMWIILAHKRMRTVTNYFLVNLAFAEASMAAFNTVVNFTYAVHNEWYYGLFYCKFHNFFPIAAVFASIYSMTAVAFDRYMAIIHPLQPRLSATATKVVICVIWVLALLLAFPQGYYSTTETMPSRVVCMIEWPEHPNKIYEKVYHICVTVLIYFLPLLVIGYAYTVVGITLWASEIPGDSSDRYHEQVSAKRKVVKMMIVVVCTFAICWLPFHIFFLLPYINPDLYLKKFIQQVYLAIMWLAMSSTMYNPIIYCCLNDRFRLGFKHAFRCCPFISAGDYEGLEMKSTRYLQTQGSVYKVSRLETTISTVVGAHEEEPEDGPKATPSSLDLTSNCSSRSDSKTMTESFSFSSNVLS
VALUE_KIND: log10(IC50) (log10 of the value in nM)

> print(dat)
                               line.notation  observed
 1  Cc1cccc(CN(C(=O)COc2cc(C(F)(F)F)cc(C(F)(F)F)c2)C2CCNCC2)c1      1.90
 2  O=C(COc1cc(C(F)(F)F)cc(C(F)(F)F)c1)N(c1ccc(Cl)c(Cl)c1)C1CCNCC1      1.50
 3  O=C(COc1cc(C(F)(F)F)cc(C(F)(F)F)c1)N(c1ccc(F)cc1)C1CCNCC1      2.50
 4  O=C(COc1cc(Cl)cc(Cl)c1)N(Cc1cccc(Cl)c1)C1CCNCC1      2.10
 5  O=C(COc1cc(C(F)(F)F)cc(C(F)(F)F)c1)N(c1cccc(Cl)c1)C1CCNCC1      2.30
 6  O=C(COc1cc(C(F)(F)F)cc(C(F)(F)F)c1)N(Cc1cccc(Cl)c1)C1CCNCC1      1.40
 7  Cc1cccc(CN(C(=O)CCc2cc(C(F)(F)F)cc(C(F)(F)F)c2)C2CCNCC2)c1      1.40
 8  O=C(CCc1cc(C(F)(F)F)cc(C(F)(F)F)c1)N(c1ccc(F)cc1)C1CCNCC1      2.30
 9  O=C(COc1cc(C(F)(F)F)cc(C(F)(F)F)c1)N(Cc1ccccc1Cl)C1CCNCC1      2.10
10  Fc1ccc(CN(CCCc2cc(C(F)(F)F)cc(C(F)(F)F)c2)C2CCNCC2)cc1      2.10
11  Cc1cc(C)cc(OCC(=O)N(Cc2cccc(Cl)c2)C2CCNCC2)c1      2.00
12  Fc1ccc(N(CCCc2cc(C(F)(F)F)cc(C(F)(F)F)c2)C2CCNCC2)cc1      1.70
13  O=C(CCc1cc(C(F)(F)F)cc(C(F)(F)F)c1)N(Cc1ccccc1Cl)C1CCNCC1      2.00
14  O=C(CCc1cc(C(F)(F)F)cc(C(F)(F)F)c1)N(Cc1ccc(F)cc1)C1CCNCC1      1.50

----------
biological target: Sodium-dependent serotonin transporter (Rattus norvegicus, UniProt P31652)
Sequence (P31652 whole entry): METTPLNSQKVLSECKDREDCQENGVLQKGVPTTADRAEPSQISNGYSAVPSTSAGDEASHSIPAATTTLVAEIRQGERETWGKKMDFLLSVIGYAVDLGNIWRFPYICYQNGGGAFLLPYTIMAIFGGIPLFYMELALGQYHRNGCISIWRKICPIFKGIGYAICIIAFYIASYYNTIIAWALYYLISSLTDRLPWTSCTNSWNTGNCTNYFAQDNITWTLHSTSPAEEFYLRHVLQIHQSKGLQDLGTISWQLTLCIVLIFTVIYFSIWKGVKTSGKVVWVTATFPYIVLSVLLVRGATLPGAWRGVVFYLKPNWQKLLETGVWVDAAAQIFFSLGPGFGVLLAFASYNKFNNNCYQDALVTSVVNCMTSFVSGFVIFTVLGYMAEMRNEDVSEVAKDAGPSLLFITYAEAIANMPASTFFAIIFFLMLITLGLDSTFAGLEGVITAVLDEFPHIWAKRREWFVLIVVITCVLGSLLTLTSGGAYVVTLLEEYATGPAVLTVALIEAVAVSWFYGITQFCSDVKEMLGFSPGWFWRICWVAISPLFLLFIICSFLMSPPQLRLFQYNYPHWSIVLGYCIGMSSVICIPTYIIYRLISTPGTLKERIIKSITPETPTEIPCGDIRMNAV
pIC50: −log10 of the molar value.
Cut-off 7 on pIC50, inclusive. At or above means satisfied; below means not satisfied.

> print(dat)
                              line.notation  category.label
1  O=C(CCc1cc(C(F)(F)F)cc(C(F)(F)F)c1)N(c1ccc(F)cc1)C1CCNCC1   not satisfied
2  Cc1cccc(CN(C(=O)CCc2cc(C(F)(F)F)cc(C(F)(F)F)c2)C2CCNCC2)c1   not satisfied
3  O=C(COc1cc(C(F)(F)F)cc(C(F)(F)F)c1)N(c1ccc(F)cc1)C1CCNCC1   not satisfied
4  Cc1cc(C)cc(OCC(=O)N(Cc2cccc(Cl)c2)C2CCNCC2)c1       satisfied
5  O=C(COc1cc(F)cc(F)c1)N(Cc1cccc(Cl)c1)C1CCNCC1       satisfied
6  Fc1ccc(N(CCCc2cc(C(F)(F)F)cc(C(F)(F)F)c2)C2CCNCC2)cc1       satisfied

----------
target: Sodium-dependent serotonin transporter (Rattus norvegicus); experiment: Binding affinity at serotonin transporter from rat cerebral cortex by [3H]-paroxetine displacement.; type: tissue-based
# IC50 values compiled below
VALUE_KIND: IC50 (µM)

> print(dat)
                              line.notation  measurement.units  observed
1  O=C(COc1cc(F)cc(C(F)(F)F)c1)N(Cc1cccc(Cl)c1)C1CCNCC1                 µM       0.1
2  O=C(COc1cc(C(F)(F)F)cc(C(F)(F)F)c1)N(c1cccc(Cl)c1)C1CCNCC1                 µM     0.158
3  O=C(COc1cc(C(F)(F)F)cc(C(F)(F)F)c1)N(Cc1ccccc1Cl)C1CCNCC1                 µM     0.158
